From: paper PMC12434521

# targetEntity: Kir2.3 (Homo sapiens, UniProt P48050)
# Construct: expressed in transfected cells
# Sequence (P48050 whole entry): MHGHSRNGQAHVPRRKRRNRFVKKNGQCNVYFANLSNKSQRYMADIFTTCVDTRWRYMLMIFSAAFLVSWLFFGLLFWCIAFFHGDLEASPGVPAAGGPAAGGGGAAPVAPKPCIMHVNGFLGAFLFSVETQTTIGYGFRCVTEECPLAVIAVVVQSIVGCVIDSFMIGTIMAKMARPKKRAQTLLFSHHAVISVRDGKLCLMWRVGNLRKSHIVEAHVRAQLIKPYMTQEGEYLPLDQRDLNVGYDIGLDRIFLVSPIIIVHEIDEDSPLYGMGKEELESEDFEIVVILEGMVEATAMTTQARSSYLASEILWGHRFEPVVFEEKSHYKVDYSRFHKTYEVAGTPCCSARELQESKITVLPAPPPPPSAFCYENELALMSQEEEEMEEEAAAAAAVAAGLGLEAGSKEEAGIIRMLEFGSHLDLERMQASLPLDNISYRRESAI
# experimentalProtocol: Kir2.3 manual patch clamp (MPC)
# Format: cell-based
This listing pairs molecules with measured Kir2.1/Kir2.3 Selectivity (MPC).

{"structureString": "[2H]C([2H])([2H])Oc1cccc(-c2ccc(CNCc3ccc(OC)cc3)cc2)c1", "targetEntity": "Kir2.3 (Homo sapiens, UniProt P48050)", "Kir2.1/Kir2.3 Selectivity (MPC), fold": 1.3}
{"structureString": "[2H]C([2H])([2H])Oc1ccc(CNCc2ccc(-c3cccc(OC([2H])([2H])[2H])c3)cc2)cc1", "targetEntity": "Kir2.3 (Homo sapiens, UniProt P48050)", "Kir2.1/Kir2.3 Selectivity (MPC), fold": 2.4}
{"structureString": "[2H]C([2H])([2H])Oc1ccc(CNCc2ccc(-c3cccc(OC)c3)cc2)cc1", "targetEntity": "Kir2.3 (Homo sapiens, UniProt P48050)", "Kir2.1/Kir2.3 Selectivity (MPC), fold": 1.8}
{"structureString": "COc1ccc(CNCc2ccc(-c3cccc(OC)c3)cc2)cc1", "targetEntity": "Kir2.3 (Homo sapiens, UniProt P48050)", "Kir2.1/Kir2.3 Selectivity (MPC), fold": 2.5}

---

Consider the following compounds and their measured Vd readings.
# experimentalProtocol: Rat PK PBL cassette (i.v.)
# Assay type: in vivo, Sprague-Dawley rat
# assayConditions: Sprague-Dawley, plasma, iv; male SD rat, 0.2 mg/kg i.v. cassette, n = 1; read-out: Vss
quantityMeasured: Vd (L/kg)

{"compound": "COc1ccc(CNCc2ccc(-c3ccccc3)cc2)cc1", "reportedValue": 1.46}
{"compound": "COc1ccc(CNCc2ccc(-c3cccc(C#N)c3)cc2)cc1", "reportedValue": 1.2}
{"compound": "[2H]C([2H])([2H])Oc1ccc(CNCc2cccc3ccccc23)cc1", "reportedValue": 1.7}
{"compound": "COc1ccc(CNCc2ccc(-c3cccc(C)c3)cc2)cc1", "reportedValue": 1.62}
{"compound": "COc1ccc(CNCc2ccc(-c3cccc(OC)c3)cc2)cc1", "reportedValue": 1.06}
{"compound": "COc1ccc(CNCc2ccc3c(c2)OC(F)(F)O3)cc1", "reportedValue": 1.58}
{"compound": "COc1ccc(CNCc2ccc(-c3cccc(F)c3)cc2)cc1", "reportedValue": 1.39}
{"compound": "COc1ccc(CNCc2cncc3ccccc23)cc1", "reportedValue": 0.39}
{"compound": "COc1ccc(CNCc2cccc3ccccc23)cc1 [ML133, reference compound]", "reportedValue": 1.5}
{"compound": "COc1ccc(CNCc2cccc(-c3ccccc3)c2)cc1", "reportedValue": 1.9}

---

# targetEntity: Kir2.2 (Homo sapiens, UniProt Q14500)
# Construct: expressed in transfected cells
# Sequence (Q14500 whole entry): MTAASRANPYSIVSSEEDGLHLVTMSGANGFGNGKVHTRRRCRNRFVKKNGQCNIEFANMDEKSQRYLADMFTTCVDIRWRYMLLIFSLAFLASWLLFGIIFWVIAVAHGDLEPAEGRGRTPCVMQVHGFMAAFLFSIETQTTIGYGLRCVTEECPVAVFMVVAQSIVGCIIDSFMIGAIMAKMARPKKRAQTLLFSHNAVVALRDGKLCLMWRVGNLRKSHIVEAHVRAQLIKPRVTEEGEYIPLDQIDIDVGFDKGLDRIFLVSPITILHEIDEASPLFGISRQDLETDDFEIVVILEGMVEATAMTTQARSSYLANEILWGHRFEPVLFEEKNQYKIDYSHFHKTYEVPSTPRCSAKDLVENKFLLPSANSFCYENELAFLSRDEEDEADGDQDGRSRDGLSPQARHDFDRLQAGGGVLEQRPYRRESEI
# experimentalProtocol: Kir2.2 manual patch clamp (MPC)
# Type: cell-based
In this section, each of the molecules is paired with its reported Kir2.1/Kir2.2 Selectivity (MPC).

{"molecule": "COc1ccc(CNCc2ccc(-c3cccc(OC)c3)cc2)cc1 [Compound 5s]", "targetEntity": "Kir2.2 (Homo sapiens, UniProt Q14500)", "Kir2.1/Kir2.2 Selectivity (MPC) [fold]": 2.1}
{"molecule": "[2H]C([2H])([2H])Oc1cccc(-c2ccc(CNCc3ccc(OC)cc3)cc2)c1 [Compound 11]", "targetEntity": "Kir2.2 (Homo sapiens, UniProt Q14500)", "Kir2.1/Kir2.2 Selectivity (MPC) [fold]": 0.73}
{"molecule": "[2H]C([2H])([2H])Oc1ccc(CNCc2ccc(-c3cccc(OC([2H])([2H])[2H])c3)cc2)cc1 [Compound 13]", "targetEntity": "Kir2.2 (Homo sapiens, UniProt Q14500)", "Kir2.1/Kir2.2 Selectivity (MPC) [fold]": 3.2}
{"molecule": "[2H]C([2H])([2H])Oc1ccc(CNCc2ccc(-c3cccc(OC)c3)cc2)cc1 [Compound 9]", "targetEntity": "Kir2.2 (Homo sapiens, UniProt Q14500)", "Kir2.1/Kir2.2 Selectivity (MPC) [fold]": 1.4}

---

# targetEntity: human Kir2.1 (Homo sapiens, UniProt P63252)
# Construct: expressed in transfected cells
# Sequence (P63252 1-427): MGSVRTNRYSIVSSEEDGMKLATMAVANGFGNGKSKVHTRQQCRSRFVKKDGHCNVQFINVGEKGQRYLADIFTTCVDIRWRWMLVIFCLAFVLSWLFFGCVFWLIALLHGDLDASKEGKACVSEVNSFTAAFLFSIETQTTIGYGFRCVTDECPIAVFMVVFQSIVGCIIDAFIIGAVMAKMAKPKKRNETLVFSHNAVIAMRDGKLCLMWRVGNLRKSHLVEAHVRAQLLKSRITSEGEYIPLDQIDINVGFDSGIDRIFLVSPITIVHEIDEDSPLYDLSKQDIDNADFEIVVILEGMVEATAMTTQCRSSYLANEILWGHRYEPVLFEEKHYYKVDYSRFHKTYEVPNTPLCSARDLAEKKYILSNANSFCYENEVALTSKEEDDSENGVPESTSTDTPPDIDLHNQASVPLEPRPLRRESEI
# experimentalProtocol: Kir2.1 thallium flux assay
# Type: cell-based
# assayConditions: efficacy from 4PL fit, relative to ML133; read-out: Thallium Flux Efficacy (% Inhibition)

{"molecule": "COc1ccc(CNCc2cncc3ccccc23)cc1", "Emax, %": 140}
{"molecule": "COc1ccc(CNCc2ccc(-c3ccccc3)cc2)cc1", "Emax, %": 101}
{"molecule": "COc1ccc(CNCc2cccc3ccccc23)cc1 [ML133, reference compound]", "Emax, %": 101}
{"molecule": "COc1ccc(CNCc2ccc(-c3ccncc3)cc2)cc1", "Emax, %": 98}

---

# experimentalProtocol: Rat PK PBL cassette (i.v.)
# Type: in vivo, Sprague-Dawley rat
# assayConditions: Sprague-Dawley, brain and plasma, iv; male SD rat, 0.2 mg/kg i.v. cassette, 0.25 time point (15 min post dosing); read-out: Kp (total brain to plasma ratio)
Assign class by Kp at 0.25 h: not lower than 2 means fulfilled; lower than 2 means not fulfilled.

{"compound": "COc1ccc(CNCc2ccc(-c3cccc(C#N)c3)cc2)cc1", "assignedClass": "not fulfilled"}
{"compound": "COc1ccc(CNCc2ccc(-c3ccccc3)cc2)cc1", "assignedClass": "not fulfilled"}
{"compound": "[2H]C([2H])([2H])Oc1ccc(CNCc2cccc3ccccc23)cc1", "assignedClass": "fulfilled"}
{"compound": "COc1ccc(CNCc2ccc(-c3cccc(OC)c3)cc2)cc1", "assignedClass": "not fulfilled"}
{"compound": "COc1ccc(CNCc2ccc(-c3cccc(F)c3)cc2)cc1", "assignedClass": "fulfilled"}
{"compound": "COc1ccc(CNCc2cccc(-c3ccccc3)c2)cc1", "assignedClass": "fulfilled"}
{"compound": "COc1ccc(CNCc2cncc3ccccc23)cc1", "assignedClass": "not fulfilled"}
{"compound": "COc1ccc(CNCc2ccc(-c3cccc(C)c3)cc2)cc1", "assignedClass": "fulfilled"}
{"compound": "COc1ccc(CNCc2ccc3c(c2)OC(F)(F)O3)cc1", "assignedClass": "fulfilled"}
{"compound": "COc1ccc(CNCc2cccc3ccccc23)cc1 [ML133, reference compound]", "assignedClass": "fulfilled"}

---

clearance values for the compounds below.
# experimentalProtocol: Rat PK PBL cassette (i.v.)
# Type: in vivo, Sprague-Dawley rat
# assayConditions: Sprague-Dawley, plasma, iv; male SD rat, 0.2 mg/kg i.v. cassette, n = 1; read-out: CLp

{"compound": "COc1ccc(CNCc2ccc(-c3cccc(F)c3)cc2)cc1 [Compound 5p]", "clearance (mL/min/kg)": 30.6}
{"compound": "COc1ccc(CNCc2ccc(-c3cccc(C#N)c3)cc2)cc1 [Compound 5t]", "clearance (mL/min/kg)": 20.2}
{"compound": "[2H]C([2H])([2H])Oc1ccc(CNCc2cccc3ccccc23)cc1 [Compound 7]", "clearance (mL/min/kg)": 22.8}
{"compound": "COc1ccc(CNCc2ccc3c(c2)OC(F)(F)O3)cc1 [Compound 5h]", "clearance (mL/min/kg)": 30.4}
{"compound": "COc1ccc(CNCc2cncc3ccccc23)cc1 [Compound 5b]", "clearance (mL/min/kg)": 18.2}
{"compound": "COc1ccc(CNCc2cccc(-c3ccccc3)c2)cc1 [Compound 5j]", "clearance (mL/min/kg)": 31.7}
{"compound": "COc1ccc(CNCc2ccc(-c3cccc(C)c3)cc2)cc1 [Compound 5r]", "clearance (mL/min/kg)": 20.6}
{"compound": "COc1ccc(CNCc2ccc(-c3ccccc3)cc2)cc1 [Compound 5k]", "clearance (mL/min/kg)": 22.6}
{"compound": "COc1ccc(CNCc2cccc3ccccc23)cc1 [ML133, reference compound]", "clearance (mL/min/kg)": 31.9}
{"compound": "COc1ccc(CNCc2ccc(-c3cccc(OC)c3)cc2)cc1 [Compound 5s]", "clearance (mL/min/kg)": 17.7}
